Every entry's value here was drawn from PubChem BioAssay AID1159580.

Test Description: chemical genetic growth profiling, strain panel (AID 1159580);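 further: tested at 20 µM; growth read once vehicle control cultures reached saturation at 30 °C; 1 = growth at the plate median or of vehicle wells; lower values mean less growth of the strain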
Test Parameters: S. cerevisiae deletion strains, growth OD, locus YKL160W, strain elf1, hits give low values
In all, about 5,500 compounds went through this assay and about 2,000 (36%) were called active. Inconclusive results (about 18%) are left out. The list shows a part of the results.
Listed molecules paired with reported normalized growth
// return just the number, without any unit appended

Known normalized growth results, listed for orientation:
CN(N=O)C(=O)N[C@@H]1[C@@H](O)[C@H](O)[C@@H](CO)O[C@@H]1O: 1.02
CC(C)(O)[C@@H]1CC[C@](C)([C@H]2[C@@H](O)C[C@@]3(C)C4C[C@H](O[C@@H]5O[C@H](CO)[C@@H](O)[C@H](O)[C@H]5O)C5C(C)(C)[C@@H](O[C@@H]6OC[C@@H](O)[C@H](O)[C@H]6O)CC[C@@]56C[C@@]46CC[C@]23C)O1 (stereo partly specified): 0.996
Cn1c(=O)c2[nH]c(C3CCCC3)nc2n(C)c1=O: 0.983
COc1ccc(-c2cc(=O)c3cc(OC)ccc3o2)cc1: 0.939
COc1ccc(-c2cc(=O)c3c(O)c(OC)c(OC)c(OC)c3o2)cc1: 0.972

Let me know recorded normalized growth for CCOC(=O)C1C(C=C(C)C)C1(C)C (stereo unspecified) , thanks.
1.01
